Where do these numbers come from? They come from patent US20250326839A1.

Target: T1, human TREM2 (human, UniProt Q9NZC2 19-174, limits assumed)
T1 construct: also called triggering receptor expressed on myeloid cells 2
T1 sequence: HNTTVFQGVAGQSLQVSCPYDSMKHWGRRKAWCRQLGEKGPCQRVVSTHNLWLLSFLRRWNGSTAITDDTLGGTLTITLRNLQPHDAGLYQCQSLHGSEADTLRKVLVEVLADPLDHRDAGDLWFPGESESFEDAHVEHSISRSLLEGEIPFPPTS
Experiment: 1st screen, 110 nM Ab
Listing of recorded Binding Signal by entry.

Solved cases below.
# binder, observed.result
measured = [
    ("V8 (antibody, V domains shown, also called 6E7 variant V8) VH: EVQLVQSGAEVKKPGESLKISCKGSGYSFTSYWIAWVRQMPGKGLEWMGIIYPGDSDTKYSPSFQGQVTISADKSISTAYLQWSSLKASDTAMYFCARQRTFYYDSSDYFDYWGQGTLVTVSS VL: DIQMTQSPSSVSASVGDRVTITCRASQGISSWLAWYQQKPGKAPKLLIYAASSLQNGVPSRFSGSGSGTDFTLTISSLQPEDFATYFCQQADSFPRTFGQGTKLEIK", "0.28 fold over 6E7 parental antibody"),
    ("V92 (antibody, V domains shown, also called 6E7 variant V92) VH: EVQLVQSGAEVKKPGESLKISCKGSGYSFTSYWIAWVRQMPGKGLEWMGIIYPGDSDTRYSPSFQGQVTISADKSISTAYLQWSSLKASDTAMYFCARQRTFHYDSSDYFDYWGQGTLVTVSS VL: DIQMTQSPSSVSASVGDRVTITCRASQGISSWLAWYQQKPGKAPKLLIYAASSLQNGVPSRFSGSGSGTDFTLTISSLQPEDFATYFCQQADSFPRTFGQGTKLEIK", "0.22 fold over 6E7 parental antibody"),
    ("V47 (antibody, V domains shown, also called 6E7 variant V47) VH: EVQLVQSGAEVKKPGESLKISCKGSGYSFTSYWIAWVRQMPGKGLEWMGIIYPGDSDTRYSPSFQGQVTISADKSISTAYLQWSSLKASDTAMYFCARQRTFYYDSSDYFDYWGQGTLVTVSS VL: DIQMTQSPSSVSASVGDRVTITCRASQGISSWLAWYQQKPGKAPKLLIYAASSLQNGVPSRFSGSGSGTDFTLTISSLQPEDFATYFCQQADSFPMTFGQGTKLEIK", "0.42 fold over 6E7 parental antibody"),
    ("V54 (antibody, V domains shown, also called 6E7 variant V54) VH: EVQLVQSGAEVKKPGESLKISCKGSGYSFTSQWIAWVRQMPGKGLEWMGIIYPGDSDTRYSPSFQGQVTISADKSISTAYLQWSSLKASDTAMYFCARQRTFYYDSSDYFDYWGQGTLVTVSS VL: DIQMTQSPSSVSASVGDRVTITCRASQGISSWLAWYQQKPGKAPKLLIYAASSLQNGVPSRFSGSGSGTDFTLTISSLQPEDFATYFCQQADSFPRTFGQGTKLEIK", "0.55 fold over 6E7 parental antibody"),
]

Switching to the query record.
Summary for this binder, V91 (antibody, V domains shown, also called 6E7 variant V91) VH: EVQLVQSGAEVKKPGESLKISCKGSGYSFTSYWIAWVRQMPGKGLEWMGIIYPDDSDTRYSPSFQGQVTISADKSISTAYLQWSSLKASDTAMYFCARQRTFYYDSSDYFDYWGQGTLVTVSS VL: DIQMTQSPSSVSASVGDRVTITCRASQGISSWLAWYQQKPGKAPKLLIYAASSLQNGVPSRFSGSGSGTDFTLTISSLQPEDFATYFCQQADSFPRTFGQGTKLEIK : Binding Signal is 0.25 fold over 6E7 parental antibody
